# TARGET_OF_ASSAY: Calmodulin-1 (Homo sapiens) (UniProt P0DP23)
# EXPERIMENT_DESCRIPTION: calcium-bound CALM1 binders on microarrays, profiling panel, artefact control for SMM control-protein annotation, biochemical, small-molecule microarray, Cy5-labelled CALM1, plus calcium (AID 1112);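 also: score merges spot fluorescence with signal to noise from triplicate slides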
# CONDITION_SUMMARY: Cy5-CALM1 binding fluorescence, higher = more signal
Assign composite z-score to each entry below.
Reply with the value as a number alone.

Prompt: Given C=CC[C@]1(C(=O)N2CCCCC2)N=C(c2ccc(OCCCO)cc2)O[C@H]1c1ccccc1 , respond with its composite z-score.
Response: -0.0541

Prompt: Return reported composite z-score. Input compound: CN(C)C(=O)[C@]1(Cc2ccccc2N=[N+]=[N-])N=C(c2ccc(OCCCO)cc2)O[C@@H]1c1ccccc1
Response: 0.0377

Prompt: Please supply the value of reported composite z-score for the item O=C1NC(=O)C2C1C=CC(C(O)C(c1ccccc1)c1ccccc1)N2Nc1ccc(Cl)cc1Cl (configuration not stated)
Response: 0.625

Prompt: Name the recorded composite z-score of the compound listed here: COc1ccc(C(O)C2C=CC3C(=O)N(c4ccccc4)C(=O)C3N2Nc2ccc(C(C)C)cc2)cc1OCc1ccccc1 (configuration not stated)
Response: 0.682

Prompt: Return composite z-score (reported value) for this compound: COc1ccc(CCNC(=O)[C@@]2(Sc3ccc(C)cc3)CC(=O)N(C3CCCCC3)[C@@H]2c2ccc(CO)cc2I)cc1
Response: 0.161

Prompt: Kindly indicate its recorded composite z-score. Item: COC(=O)[C@@]1(Cc2ccc(F)cc2)[C@H]2c3cc(C(=O)N(C)C)n(Cc4ccc(S(C)(=O)=O)cc4)c3C[C@H]2CN1C(=O)c1ccccc1
Response: 0.497

Prompt: State, in one line, measured composite z-score of C=CCOC(=O)[C@@H]1[C@H]2C(=O)O[C@H](c3ccccc3)[C@H](c3ccccc3)N2[C@H](c2ccc(OCCOC(=O)[C@@H]3C[C@@H]4C(=O)N[C@@H](CCCCN(C)C)C(=O)N4[C@@H]3c3ccc(O)cc3)cc2)[C@@]12C(=O)Nc1ccc(I)cc12
Response: -0.0759

Prompt: # return recorded composite z-score for input O=C1O[C@H](c2ccccc2)[C@H](c2ccccc2)N2[C@H]1[C@@H](C(=O)Nc1nc3ccccc3s1)[C@]1(C(=O)Nc3ccc(C#CC4(O)CCCCCC4)cc31)[C@H]2c1ccc(OCCO)cc1
Response: 0.0521

Prompt: Consider the compound C#CCNC(=O)[C@H](Cc1ccccc1)NC(=O)CCC(=O)O . State its measured composite z-score.
Response: -0.834

Prompt: Please report composite z-score for the following compound: C[N+](C)(C)CCCC[C@@H]1NC(=O)[C@@H]2C[C@H](C(=O)NCCCCCN)[C@H](c3cccc(OCCO)c3)N2C1=O
Response: 1.12

Prompt: Identify measured composite z-score associated with COc1ccc([Si](C)(C)[C@H]2[C@H](CC(=O)N3CCC[C@H]3CO)O[C@@]3(C(=O)N(Cc4cccc(N5C(=O)c6cccc7cccc5c67)c4)c4ccccc43)[C@@H]2C)cc1
Response: -0.0975

Prompt: Recall and state the measured composite z-score for [N-]=[N+]=Nc1ccccc1[C@H]1OC(c2ccc(OCCCO)cc2)=N[C@@]1(Cc1ccccc1)C(=O)O .
Response: -0.0461

Prompt: Indicate the recorded composite z-score value for this compound: COC(=O)[C@@]1(Cc2ccc(F)cc2)[C@H]2c3cc(C(=O)N(C)C)n(Cc4nc5ccccc5[nH]4)c3C[C@H]2CN1C(=O)c1ccccc1
Response: 0.114

Prompt: Determine from records and report composite z-score for C#CCN(CC=C(C)C)[C@H](CO)c1ccccc1
Response: -0.438

Prompt: State its composite z-score for this compound: COCCCN1C(=O)[C@@]2(c3ccc([N+](=O)[O-])cc3)CC(=O)N(C3CCCCC3)[C@@H]2c2ccc(CO)cc21
Response: -1.17

Prompt: Write down composite z-score measured for item CN1C(=O)C2C=CC(C(O)c3cc(C(F)(F)F)cc(C(F)(F)F)c3)N(N3CCCCC3)C2C1=O (configuration not stated)
Response: 0.769

Prompt: Dear colleague, please send me the reported composite z-score for CC(C)C(CO)N1C(=O)[C@@H]2[C@H]3C(=O)OCC=C[C@H]3OC23C=CCN(C(C)C)C(=O)[C@@H]13 (some centres not stated) when you can.
Response: -1.11

Prompt: Supply composite z-score value. Item: CCOC(=O)[C@H]1C/C=C/C[C@H](C(=O)OCC)C(=O)O[C@H]2[C@@H](OC)O[C@H](CO)[C@@H](OC(=O)Nc3ccc(C#N)cc3)[C@@H]2OC1=O
Response: 0.148

Prompt: In one line, give reported composite z-score of the entry C=C(CCCC)/C(=C/C[C@@H](OC(C)=O)c1ccccc1OCCO)c1cnc2ccccc2c1 .
Response: -0.418

Prompt: Given CN(C)C(=O)[C@@]1(Cc2ccccc2CN=[N+]=[N-])N=C(c2ccc(OCCCO)cc2)O[C@H]1c1ccccc1 , respond with its composite z-score.
Response: 0.46

Prompt: // Input: COc1ccc(CCNC(=O)[C@@]2(C)c3ccccc3C(=O)N(Cc3cc(F)cc(C(F)(F)F)c3)[C@H]2c2ccc(CO)cc2)cc1 . Output its composite z-score only.
Response: -0.183

Prompt: Answer with the recorded composite z-score of CC[C@@H]1C=C(C(=O)O)[C@H](c2ccco2)N1S(=O)(=O)c1ccc(C)cc1 only.
Response: -0.841
